target: BRD4 (Homo sapiens); construct: HEK293 containing a HiBit insertion for BRD4; endogenous in cells; host or cells: HEK293 with a HiBiT insertion for BRD4; experiment: Assay 1 - Degradation of HiBit-BRD4 in HEK293; assay type: cell-based; conditions: HiBit-BRD4 in HEK293, 6 h treatment
PARAMETER_MEASURED: DC50

Consider the reported DC50 for these compounds:
>>> measured("CC(=O)N1c2ccc(-c3ccc(C(=O)NCCOCCOCCOCCOCCOCCNC(=O)[C@@H]4CN(C(=O)/C(C#N)=C/c5nccs5)C[C@H]4c4ccc(F)cc4)cc3)cc2[C@H](Nc2ccc(Cl)cc2)C[C@@H]1C [Example 15ae]")
"0.025 to 0.2 µM"
>>> measured("CC(=O)N1c2ccc(-c3ccc(C(=O)NCCOCCOCCOCCOCCOCCNC(=O)C4CC(c5ccccc5)CN(C(=O)/C(C#N)=C/c5ccc(F)cc5)C4)cc3)cc2[C@H](Nc2ccc(Cl)cc2)C[C@@H]1C (stereo partly drawn) [Example 13ac]")
"0.025 to 0.2 µM"
>>> measured("CC(=O)N1c2ccc(-c3ccc(C(=O)NCCOCCOCCOCCOCCOCCNC(=O)C4CC(C5CCCCC5)CN(C(=O)/C(C#N)=C/C(C)(C)C)C4)cc3)cc2[C@H](Nc2ccc(Cl)cc2)C[C@@H]1C (stereo partly drawn) [Example 13q]")
"0.025 to 0.2 µM"
>>> measured("CC(=O)N1c2ccc(-c3ccc(C(=O)NCCOCCOCCOCCOCCOCCNC(=O)C4CC(C)CN(C(=O)/C(C#N)=C/C(C)(C)C)C4)cc3)cc2[C@H](Nc2ccc(Cl)cc2)C[C@@H]1C (stereo partly drawn) [Example 13g]")
"> 0.2 µM"
>>> measured("CC(=O)N1c2ccc(-c3ccc(C(=O)NCCOCCOCCOCCOCCOCCNC(=O)C4CC(C(C)C)CN(C(=O)/C(C#N)=C/c5ccc(F)cc5)C4)cc3)cc2[C@H](Nc2ccc(Cl)cc2)C[C@@H]1C (stereo partly drawn) [Example 13n]")
"> 0.2 µM"
>>> measured("CC(=O)N1c2ccc(-c3ccc(C(=O)NCCOCCOCCOCCOCCOCCNC(=O)[C@@H]4CN(C(=O)/C(C#N)=C/C(C)(C)CN5CCOCC5)C[C@H]4CC(C)C)cc3)cc2[C@H](Nc2ccc(Cl)cc2)C[C@@H]1C [Example 15o]")
"0.025 to 0.2 µM"
>>> measured("CC(=O)N1c2ccc(-c3ccc(C(=O)NCCOCCOCCOCCOCCOCCNC(=O)C4CC(c5cccc(C)c5)CN(C(=O)/C(C#N)=C/C(C)(C)C)C4)cc3)cc2[C@H](Nc2ccc(Cl)cc2)C[C@@H]1C (stereo partly drawn) [Example 13au]")
"0.025 to 0.2 µM"
>>> measured("CC(=O)N1c2ccc(-c3ccc(C(=O)NCCOCCOCCOCCOCCOCCNC(=O)[C@@H]4CN(C(=O)/C(C#N)=C/c5nccs5)C[C@H]4CC(C)C)cc3)cc2[C@H](Nc2ccc(Cl)cc2)C[C@@H]1C [Example 15k]")
"0.025 to 0.2 µM"

// switching to the query compound
Incoming: Please look at CC(=O)N1c2ccc(-c3ccc(C(=O)NCCOCCOCCOCCOCCOCCNC(=O)[C@@H]4CN(C(=O)/C(C#N)=C/c5ccc(F)cc5)C[C@H]4c4ccc(F)cc4)cc3)cc2[C@H](Nc2ccc(Cl)cc2)C[C@@H]1C [Example 15ah] and tell me its recorded DC50 on BRD4 (Homo sapiens).
Outgoing: > 0.2 µM
